Hello, the source for this data is patent US12624096B2, in case you need it.

Give ka for every item shown.
Biological target: htau40 (Homo sapiens, UniProt P10636)
Sequence (P10636 1-441 isoform P10636-8): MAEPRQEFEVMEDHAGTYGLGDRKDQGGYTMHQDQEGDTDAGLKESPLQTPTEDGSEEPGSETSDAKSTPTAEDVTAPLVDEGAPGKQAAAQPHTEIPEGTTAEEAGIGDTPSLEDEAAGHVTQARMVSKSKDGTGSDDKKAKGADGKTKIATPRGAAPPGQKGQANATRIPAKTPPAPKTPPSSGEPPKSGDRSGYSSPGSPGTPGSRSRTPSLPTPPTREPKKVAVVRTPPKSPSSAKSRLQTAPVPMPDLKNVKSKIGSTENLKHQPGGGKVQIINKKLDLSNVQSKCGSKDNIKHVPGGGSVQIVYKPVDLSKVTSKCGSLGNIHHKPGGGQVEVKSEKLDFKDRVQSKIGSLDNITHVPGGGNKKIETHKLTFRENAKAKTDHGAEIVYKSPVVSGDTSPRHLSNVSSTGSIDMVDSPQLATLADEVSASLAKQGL
Assay: Biacore X100 SPR of anti-tau mAbs on immobilised htau40
Assay type: binding
Details: mAb, Table 27, immobilised hT40
Expressed in M⁻¹ s⁻¹, but write only the number.

Challenge: Query: ka; subject: CE2: anti-tau clone referred to as CE2 or E1B8, SEQ ID NO: 366 (protein, CE2/E1B8 amino acid sequence) scFv: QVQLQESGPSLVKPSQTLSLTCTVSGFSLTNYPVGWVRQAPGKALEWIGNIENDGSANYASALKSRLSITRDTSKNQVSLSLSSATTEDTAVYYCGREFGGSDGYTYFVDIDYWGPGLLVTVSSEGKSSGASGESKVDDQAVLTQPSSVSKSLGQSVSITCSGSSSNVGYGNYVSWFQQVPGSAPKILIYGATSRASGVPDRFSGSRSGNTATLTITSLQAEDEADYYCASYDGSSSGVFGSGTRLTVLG
Response given: 457900

Challenge: Value lookup for ka; key = CB7: anti-tau clone, SEQ ID NO: 364 (protein, CB7 amino acid sequence) scFv: QVQLQESGPSLVKPSQTLSLTCTVSGFSLTNYRVGWVRQAPGKALEWVSNIRSGGTTWYNPALKSRLSITADTSKSQVSLSLSSVTTEDTAVYYCARDSSGDLYAYDYWGPGLLVTVSSEGKSSGASGESKVDDQAVLTQPSSVSRSLGQSVSMTCSGSSSNVGYGNYMAWFQQVPGSAPKLLIYGATSRASGVPDRFSGSRSGNTATLTISSLQAEDEADYYCASYDSTSGGVFGSGTRLTVLG
Response given: 2.568e+06
